Catalogue of binders with associated Kd
# subject_of_test: T1, HuR_(106-326) (UniProt Q15717 106-326)
# T1 construct: amplified from a pGEX-4T-2 plasmid carrying full-length HuR; No cleavage of the tags is told; also called human antigen R construct with RRM2, hinge region and RRM3; source: E. coli BL21 (DE3), purified (Ni-NTA, dialysis)
# test_protocol: ITC; 1 mM peptide titrated onto 100 µM HuR106-326 in the cell; 17 injections of 2.91 µL; 10 mM sodium phosphate buffer pH 6.3 (low ionic strength); stirring 200 rpm; Nano ITC Low Volume
# condition_description: both partners purified
Form entry: value (µM) — number only.

# binder, Kd [µM]
data = [
    ("EEERGQKRKREPEDEGEDDD (also called ANP32A peptide; source: synthetic peptide (Genecust, France)) [ANP32A_(230-249) peptide]", 120),
]

Okay, next one:
GET /values?readout=Kd&item= EEGGKGEKRKRETDDEGEDD (also called ANP32B peptide; source: synthetic peptide (Genecust, France)) [ANP32B_(232-251) peptide]
550

Where do the numbers come from? From paper PMC11948038.
